- System under test: κ opioid receptor (Homo sapiens (Human))
- Assay info: κ-opioid receptor [35S]GTPγS functional assay, U-2 OS cells
- Assay type: biochemical
- Test context: relative to U69,593; U-2 OS cells
Experimental readout: Emax (%)
Could you give me the number in %? Just the number is fine.

Reference set, count: 5
COc1ccc2c(c1)[C@]13CCN(CCCc4ccccc4)[C@H](C2)[C@]1(O)CC[C@@]1(C3)NC(=O)NC1=O : 63
O=C1NC(=O)[C@@]2(CC[C@@]3(O)[C@H]4Cc5ccc(O)cc5[C@@]3(CCN4CC3CC3)C2)N1Cc1ccccc1 : 115
O=C1NC(=O)[C@@]2(CC[C@@]3(O)[C@H]4Cc5ccc(O)cc5[C@@]3(CCN4CC(F)F)C2)N1 : 99
CCN1CC[C@]23C[C@]4(CC[C@@]2(O)[C@H]1Cc1ccc(O)cc13)NC(=O)NC4=O : 102
CN1C(=O)NC(=O)[C@@]12CC[C@@]1(O)[C@H]3Cc4ccc(O)cc4[C@@]1(CCN3CC1CC1)C2 : 108

Query block: Given the compound O=C1NC(=O)[C@@]2(CC[C@@]3(O)[C@H]4Cc5ccc(O)cc5[C@@]3(CCN4CCCc3ccccc3)C2)N1 , what is its reported Emax?
Result block: 84.3

Query block: Returns the measured Emax for the input compound. Input: COc1ccc2c(c1)[C@]13CCN(CCc4ccccc4)[C@H](C2)[C@]1(O)CC[C@@]1(C3)NC(=O)NC1=O
Result block: 75.7

Query block: Which Emax value belongs to C=C(C)CCN1CC[C@]23C[C@]4(CC[C@@]2(O)[C@H]1Cc1ccc(O)cc13)NC(=O)NC4=O ?
Result block: 101

Query block: Recorded Emax for COc1ccc2c(c1)[C@]13CCN(CC4CCCCC4)[C@H](C2)[C@]1(O)CC[C@@]1(C3)NC(=O)NC1=O , please?
Result block: 98

----------
- System under test: μ-opioid receptor (Homo sapiens (Human))
- Assay info: μ-opioid receptor [35S]GTPγS functional assay, U-2 OS cells
- Assay type: biochemical
Experimental readout: pEC50
Formally, pEC50 is defined as -log10 of the concentration c, with c in mol/L.

Sample answers from the record:
CN1CC[C@]23C[C@@]4(CC[C@@]2(O)[C@H]1Cc1ccc(O)cc13)C(=O)NC(=O)N4CC1CC1 [Compound 66] : 7.12
C=C(C)CCN1CC[C@]23C[C@]4(CC[C@@]2(O)[C@H]1Cc1ccc(O)cc13)NC(=O)NC4=O [Compound 37] : 7.73
O=C1NC(=O)[C@@]2(CC[C@@]3(O)[C@H]4Cc5ccc(O)cc5[C@@]3(CCN4CCCc3ccccc3)C2)N1 [Compound 36] : 6.35

Query block: Reported pEC50 for CC(C)CCN1CC[C@]23C[C@]4(CC[C@@]2(O)[C@H]1Cc1ccc(O)cc13)NC(=O)NC4=O [Compound 28] : what is it?
Result block: 6.81

Query block: What value of measured pEC50 is listed for CCN1CC[C@]23C[C@]4(CC[C@@]2(O)[C@H]1Cc1ccc(O)cc13)NC(=O)NC4=O [Compound 29] ?
Result block: 5.90

Query block: Form field: reported pEC50 of CCN1C(=O)N[C@]2(CC[C@@]3(O)[C@H]4Cc5ccc(O)cc5[C@@]3(CCN4C)C2)C1=O [Compound 61]
Result block: 7.41

----------
- System under test: μ-opioid receptor (Homo sapiens (Human))
- Assay info: μ-opioid receptor [35S]GTPγS functional assay, U-2 OS cells
- Type: biochemical
- Test context: relative to DAMGO; U-2 OS cells
Output Yes for records whose Emax is lower than 30%, No for records at or above 30%.

Worked examples, 5 compounds total:
CCN1C(=O)NC(=O)[C@@]12CC[C@@]1(O)[C@H]3Cc4ccc(O)cc4[C@@]1(CCN3CC1CC1)C2 [Compound 49] : Yes
CC(C)CCN1CC[C@]23C[C@]4(CC[C@@]2(O)[C@H]1Cc1ccc(O)cc13)NC(=O)NC4=O [Compound 28] : No
CCN1C(=O)N[C@]2(CC[C@@]3(O)[C@H]4Cc5ccc(OC)cc5[C@@]3(CCN4CC)C2)C1=O [Compound 16] : Yes
O=C1NC(=O)[C@@]2(CC[C@@]3(O)[C@H]4Cc5ccc(O)cc5[C@@]3(CCN4CCCC(F)(F)F)C2)N1 [Compound 34] : No
COc1ccc2c(c1)[C@]13CCN(CC4CCCCC4)[C@H](C2)[C@]1(O)CC[C@@]1(C3)NC(=O)NC1=O [Compound 23] : Yes

Query block: Hello, I'm reviewing records and need to know if Emax of COc1ccc2c(c1)[C@]13CCN(CCCc4ccccc4)[C@H](C2)[C@]1(O)CC[C@@]1(C3)NC(=O)NC1=O [Compound 26] is below 30%. Could you check?
Result block: Yes

Query block: Is Emax of O=C1N[C@]2(CC[C@@]3(O)[C@H]4Cc5ccc(O)cc5[C@@]3(CCN4CC3CC3)C2)C(=O)N1Cc1ccc(O)cc1 [Compound 47] strictly below 30%?
Result block: No

----------
- System under test: μ-opioid receptor (Homo sapiens (Human))
- Assay info: μ-opioid receptor radioligand ([3H]-diprenorphine) dose-displacement binding assay
- Test context: binding affinity, read-out: Opioid Receptor Ki (nM) μ
Ki overview
Respond with the bare value in nM.

Consider the reported Ki for these molecules:
O=C1NC(=O)[C@@]2(CC[C@@]3(O)[C@H]4Cc5ccc(O)cc5[C@@]3(CCN4CC3CC3)C2)N1 [Compound 3] : 15.9
COc1ccc2c(c1)[C@]13CCN(CC4CC4)[C@H](C2)[C@]1(O)CC[C@@]1(C3)NC(=O)NC1=O [Compound 2] : 9050
CCN1C(=O)NC(=O)[C@@]12CC[C@@]1(O)[C@H]3Cc4ccc(O)cc4[C@@]1(CCN3CC1CC1)C2 [Compound 49] : 2.28

Query block: Requested read-out: Ki. Entry: COc1ccc2c(c1)[C@]13CCN[C@H](C2)[C@]1(O)CC[C@@]1(C3)NC(=O)NC1=O [Compound 12]
Result block: 14900

----------
- System under test: μ-opioid receptor (Homo sapiens (Human))
- Assay info: μ-opioid receptor radioligand ([3H]-diprenorphine) dose-displacement binding assay
- Test context: binding affinity, bound given in μM, read-out: Opioid Receptor Ki μ
Experimental readout: Ki

Query block: Look at this molecule and give its reported Ki. COc1ccc2c(c1)[C@]13CCN(Cc4ccccc4)[C@H](C2)[C@]1(O)CC[C@@]1(C3)NC(=O)NC1=O
Result block: > 20 µM

----------
- System under test: UniProtKB P35372
- Assay info: μ-opioid receptor [35S]GTPγS functional assay, U-2 OS cells
- Type: biochemical
- Test context: relative to DAMGO; U-2 OS cells
Quick list: Emax per entry.
Note: unit % is implicit; provide only the numeric part.

Guide cases for Emax, answers given:
CCN1CC[C@]23C[C@]4(CC[C@@]2(O)[C@H]1Cc1ccc(O)cc13)NC(=O)NC4=O : 83.8
CCN1C(=O)N(Cc2ccc(O)cc2)C(=O)[C@@]12CC[C@@]1(O)[C@H]3Cc4ccc(O)cc4[C@@]1(CCN3CC1CC1)C2 : 12
O=C1NC(=O)[C@@]2(CC[C@@]3(O)[C@H]4Cc5ccc(O)cc5[C@@]3(CCN4CC(F)F)C2)N1 : 12
CN1CC[C@]23C[C@@]4(CC[C@@]2(O)[C@H]1Cc1ccc(O)cc13)C(=O)NC(=O)N4CC1CC1 : 98
O=C1NC(=O)[C@@]2(CC[C@@]3(O)[C@H]4Cc5ccc(O)cc5[C@@]3(CCN4CC3CCCCC3)C2)N1 : 21.3
COc1ccc2c(c1)[C@]13CCN(CCC(C)C)[C@H](C2)[C@]1(O)CC[C@@]1(C3)NC(=O)NC1=O : 46

Pending compound:
Query block: Can you share its Emax? I mean this compound: O=C1NC(=O)[C@@]2(CC[C@@]3(O)[C@H]4Cc5ccc(O)cc5[C@@]3(CCN4CCc3ccccc3)C2)N1
Result block: 104

----------
- System under test: μ-opioid receptor (Homo sapiens (Human))
- Assay info: μ-opioid receptor [35S]GTPγS functional assay, U-2 OS cells
- Format: biochemical
- Test context: relative to DAMGO; U-2 OS cells
Experimental readout: Emax (%)
Use % as the unit, but write only the number.

Examples with answers:
COc1ccc2c(c1)[C@]13CCN(CCc4ccccc4)[C@H](C2)[C@]1(O)CC[C@@]1(C3)NC(=O)NC1=O : 105
O=C1NC(=O)[C@@]2(CC[C@@]3(O)[C@H]4Cc5ccc(O)cc5[C@@]3(CCN4CC3CC3)C2)N1CC(F)(F)F : 14
COc1ccc2c(c1)[C@]13CCN(CC(F)(F)F)[C@H](C2)[C@]1(O)CC[C@@]1(C3)NC(=O)NC1=O : 10
O=C1NC(=O)[C@@]2(CC[C@@]3(O)[C@H]4Cc5ccc(O)cc5[C@@]3(CCN4CC3CC3)C2)N1CC1CC1 : 2
CN1C(=O)NC(=O)[C@@]12CC[C@@]1(O)[C@H]3Cc4ccc(O)cc4[C@@]1(CCN3CC1CC1)C2 : 14.3
CCN1C(=O)N(CC)[C@]2(CC[C@@]3(O)[C@H]4Cc5ccc(O)cc5[C@@]3(CCN4CC3CC3)C2)C1=O : 10.7
COc1ccc2c(c1)[C@]13CCN(CCC(F)(F)F)[C@H](C2)[C@]1(O)CC[C@@]1(C3)NC(=O)NC1=O : 18.5
COc1ccc2c(c1)[C@]13CCN(CC(F)F)[C@H](C2)[C@]1(O)CC[C@@]1(C3)NC(=O)NC1=O : 1
COc1ccc2c(c1)[C@]13CCN(CC=C(C)C)[C@H](C2)[C@]1(O)CC[C@@]1(C3)NC(=O)NC1=O : 5.5
COc1ccc2c(c1)[C@]13CCN(C/C=C/c4ccccc4)[C@H](C2)[C@]1(O)CC[C@@]1(C3)NC(=O)NC1=O : 8

Query block: Value lookup for Emax; key = CCN1C(=O)N[C@]2(CC[C@@]3(O)[C@H]4Cc5ccc(O)cc5[C@@]3(CCN4CC)C2)C1=O
Result block: 88.9

Query block: Please give the measured Emax for this molecule: N#CCN1C(=O)NC(=O)[C@@]12CC[C@@]1(O)[C@H]3Cc4ccc(O)cc4[C@@]1(CCN3CC1CC1)C2
Result block: 16

Query block: Which Emax value belongs to C=C(C)CCN1CC[C@]23C[C@]4(CC[C@@]2(O)[C@H]1Cc1ccc(O)cc13)NC(=O)NC4=O ?
Result block: 92

Query block: Quick one: Emax for O=C1NC(=O)[C@@]2(CC[C@@]3(O)[C@H]4Cc5ccc(O)cc5[C@@]3(CCN4CCCc3ccccc3)C2)N1 ?
Result block: 77.7
